Literature survey of IC50 (system: UniProt:Q13822).

# annotated cases, reported IC50 shown
Compound	IC50
Cn1cc(-n2c(Cl)c(Sc3cccc(C(=O)O)c3F)c3ccc(Cl)c(F)c32)cn1	< 500 nM
CCCCC1CN(CC(=O)OCC)C(=O)c2cc(-c3ccc(Cl)cc3)nn21 (stereo not shown)	10 to 100 nM
CC(C)Oc1cc(C(=O)N2C[C@@H]3[C@H]4CN(C(=O)c5ccc(S(N)(=O)=O)cc5)C[C@H]4[C@@H]3C2)cc2ccccc12	9 nM
CCCCCC1CN(CC(=O)NCCCCCC(=O)O)C(=O)c2cc(-c3ccc(Cl)cc3)nn21 (stereo not shown)	100 to 1000 nM
O=C(c1ccc2[nH]nnc2c1)N1C[C@@H]2[C@H](C1)[C@H]1CN(C(=O)c3ccc(-c4ccc(Cl)cc4)cn3)C[C@@H]21	6 nM
Cc1c(Sc2cccc(C(=O)O)c2)c2ccc(Cl)c(F)c2n1CC(=O)N1CCC(c2ccncc2)C1 (stereo not shown)	≤ 500 nM

Here is the next item to consider.
What value of IC50 on UniProt:Q13822 does COc1ccc(Cn2c3c(c4ccccc42)C[C@H]2C(=O)N(CCC(=O)O)C(=O)N2C3)cc1 have?
< 500 nM

###

Literature survey of IC50 (system: Autotaxin (Homo sapiens)).

# annotated cases, reported IC50 shown
Compound	Result
CCCC1CN(Cc2ccc(C#N)cc2)C(=O)c2cc(-c3ccc(Cl)cc3)nn21 (stereo not shown)	100 to 1000 nM
O=C(NCCCP(=O)(O)O)c1ccc2c(C(F)(F)F)c(O[C@H]3CC[C@@H](C(F)(F)F)CC3)ccc2c1	≤ 100 nM
N#CC1(NC(=O)CN2CC(COCC(F)(F)F)n3nc(-c4ccc(Cl)cc4)cc3C2=O)CC1 (stereo not shown)	100 to 1000 nM

Here is the next item to consider.
What value of IC50 on Autotaxin (Homo sapiens) does Cc1cc(C(=O)N[C@@H](C(=O)N2CCC3(CC2)C(=O)N(C)CN3c2ccccc2)C(C)C)ccn1 have?
≥ 1000 nM

###

Literature survey of IC50 (system: Autotaxin (Homo sapiens)).

Molecule	Assay Target	Quantity	Result
Cc1cccc(C(=O)N[C@@H](C(=O)N2CCC3(CC2)C(=O)N(C)CN3c2ccc(Br)cc2)C(C)C)c1	Autotaxin (Homo sapiens)	IC50	< 500 nM
Cc1c(Sc2cccc(C(=O)O)c2F)c2ccc(Cl)c(F)c2n1CC(=O)N1CCC2(C1)OCCO2	Autotaxin (Homo sapiens)	IC50	≤ 500 nM
O=C(c1cnc(NCc2cc(OC(F)(F)F)cc(C3CC3)c2)nc1)N1CC(F)(F)C1	Autotaxin (Homo sapiens)	IC50	100 to 1000 nM

What value of IC50 on Autotaxin (Homo sapiens) does CCCCCC1CN(CC(=O)NC2CCC[C@@H]2C(=O)OCC)C(=O)c2cc(-c3ccc(Cl)cc3)nn21 (stereo partly shown) have?
100 to 1000 nM

What value of IC50 on Autotaxin (Homo sapiens) does Cc1nc2cc(CN3C(=O)N(C)C(=O)C34CCN(C(=O)[C@H](NC(=O)c3cc(C(F)(F)F)ccc3F)C(C)C)CC4)ccn2n1 have?
≥ 1000 nM

###

Literature survey of IC50 (system: Autotaxin (Homo sapiens)).

Compound	Assay Target	IC50
C[C@H]1CC[C@@H](Oc2ccc3cc(C(C(=O)O)N4CCC(C(=O)O)CC4)ccc3c2C(F)(F)F)CC1 (stereo partly drawn)	Autotaxin (Homo sapiens)	≤ 500 nM
O=C(O)C1CN(Cc2ccc3c(C(F)(F)F)c(O[C@H]4CC[C@@H](C(F)(F)F)CC4)ccc3c2)CCC1O (relative stereo)	Autotaxin (Homo sapiens)	≤ 500 nM
CCCCC1CN(Cc2ccc(C#N)cc2)C(=O)c2cc(-c3ccc(OC)c(CO)c3)nn21 (stereo not drawn)	Autotaxin (Homo sapiens)	≥ 1000 nM
Cc1cc(F)cc(C(=O)N[C@@H](C(=O)N2CCC3(CC2)C(=O)N(CC(=O)O)CN3c2ccccc2)C(C)C)c1	Autotaxin (Homo sapiens)	500 to 1000 nM
NC(=O)OCCn1cc(-n2c(C3CC3)c(Sc3cccc(C(=O)O)c3F)c3ccc(Cl)c(F)c32)cn1	Autotaxin (Homo sapiens)	< 500 nM
CCc1nc2sc(N3CC[C@H](N(C)CC(=O)N4CC(C(=O)O)C4)C3)nn2c1N(C)c1nc(-c2ccc(F)cc2)c(C#N)s1	Autotaxin (Homo sapiens)	0.01 to 100 nM

Endpoint output: IC50 of CC1CCN1C(=O)c1cnc(N[C@@H]2Cc3ccc(Cl)cc3C2)nc1 (stereo partly drawn) . Value?
< 100 nM

Endpoint output: IC50 of CC1(O)CN(C(=O)c2cnc(NCc3cc(OC(F)(F)F)cc(C4CC4)c3)nc2)C1 . Value?
100 to 1000 nM

Endpoint output: IC50 of CCCCCC1CN(CC(=O)NCCCC)C(=O)c2cc(-c3ccc(Cl)cc3)nn21 (stereo not drawn) . Value?
100 to 1000 nM

Endpoint output: IC50 of O=C(O)CCCN1C(=O)[C@@H]2Cc3c(n(Cc4ccc(F)cc4)c4cc(Cl)ccc34)CN2C1=O . Value?
> 1000 nM

Endpoint output: IC50 of CCCCC1CN(CC(=O)NCC(C)(C)O)C(=O)c2cc(-c3ccc(Cl)cc3)nn21 (stereo not drawn) . Value?
100 to 1000 nM

Endpoint output: IC50 of Cc1c(Sc2cccc(C(=O)O)c2)c2ccc(Cl)c(F)c2n1CC(=O)Nc1cnn(C)c1 . Value?
≤ 500 nM

Endpoint output: IC50 of Cc1cccc(C(=O)N[C@@H](C(=O)N2CCC3(CC2)C(=O)N(C)CN3c2ccccc2)C2CCOCC2)c1 (single isomer, unassigned) . Value?
500 to 1000 nM

Endpoint output: IC50 of O=C1[C@@H]2Cc3c(n(Cc4ccc(F)cc4)c4ccccc34)CN2C(=O)N1CC1(C(=O)O)CC1 . Value?
< 500 nM

Endpoint output: IC50 of C[C@H]1CC[C@@H](Oc2ccc3cc(CN4CCC(C(=O)O)CC4)ccc3c2C(F)F)CC1 . Value?
≤ 100 nM

###

Literature survey of IC50 (system: UniProt:Q13822).

# annotated cases, reported IC50 shown
Compound	IC50
NS(=O)(=O)c1ccc(C(=O)N2C[C@H]3CN(C(=O)c4ccc(-c5ccc(Cl)cc5)cc4)C[C@H]3C2)cc1	0.003 µM
C[C@H]1CN(CC(=O)N(C)CCC#N)C(=O)c2cc(-c3ccc(C#N)cc3NC(=O)CO)nn21	0.1 to 1 µM
CC(C)Oc1cc(CNc2ncc(C(=O)N3CCC3C(C)(C)O)cn2)cc(OC(C)C)c1 (stereo not shown)	< 0.1 µM
Cn1c(COc2cc(Cl)c(C#N)cc2-c2cc(F)ccc2F)n[nH]c1=O	0.005 µM
COC(c1cccc(COC(=O)N2C[C@@H]3CN(C(=O)c4ccc5[nH]nnc5c4)C[C@@H]3C2)c1)C(F)(F)F (stereo partly shown)	0.722 µM

What value of IC50 on UniProt:Q13822 does CC(C)OCC1CNC(=O)c2cc(-c3ccc(Cl)cc3)nn21 (stereo not shown) have?
≥ 1 µM

What value of IC50 on UniProt:Q13822 does CCCCC1CN(Cc2ccc(C#N)cc2)C(=O)c2cc(-c3ccc(Cl)cc3CC#N)nn21 (stereo not shown) have?
0.1 to 1 µM

What value of IC50 on UniProt:Q13822 does O=C(O)[C@H]1CCCN(Cc2ccc3c(C(F)(F)F)c(O[C@H]4CC[C@@H](C(F)(F)F)CC4)ccc3c2)C1 have?
≤ 0.25 µM

What value of IC50 on UniProt:Q13822 does CCCCC1CN(Cc2nc3ccccc3o2)C(=O)c2cc(-c3ccc(Cl)cc3)nn21 (stereo not shown) have?
0.1 to 1 µM

What value of IC50 on UniProt:Q13822 does CCc1ccc(F)c(C(=O)N[C@@H](C(=O)N2CCC3(CC2)C(=O)N(C)CN3c2ccccc2)C(C)C)c1 have?
< 0.5 µM

###

Literature survey of pIC50 (system: UniProt Q13822).
pIC50: −log10 of the molar value.

# annotated cases, reported pIC50 shown
Molecule	pIC50
NS(=O)(=O)c1ccc(C(=O)N2C[C@H]3CN(C(=O)OCc4ccc(OC(F)(F)F)cc4F)C[C@H]3C2)cc1	9.00
CCCCCC1CN(CC(=O)NCCCCCCC(=O)O)C(=O)c2cc(-c3ccc(Cl)cc3)nn21 (stereo not drawn)	6.00 to 7.00

Here is the next item to consider.
What value of pIC50 on UniProt Q13822 does CCc1ccc(F)c(C(=O)N[C@@H](C(=O)N2CCC(C)(CNc3ccc(S(C)(=O)=O)cc3)CC2)C(C)C)c1 have?
6.30 to 7.00

###

Literature survey of IC50 (system: Autotaxin (Homo sapiens, UniProt Q13822)).

# annotated cases, reported IC50 shown
Compound	IC50
C[C@H]1CN(Cc2ccc(C#N)cc2)C(=O)c2cc(-c3ccc(Cl)cc3Br)nn21	≥ 1000 nM
CC(C)[C@@H](NC(=O)c1cccc(C2CC2)c1)C(=O)N1CCC2(CC1)C(=O)N(C)CN2c1ccccc1	< 500 nM

Endpoint output: IC50 of CN(c1nc(-c2ccc(F)cc2)c(C#N)s1)c1c(CCOCc2ccccc2)nc2sc(N3CC[C@@H](N(C)CC(=O)N4CC(O)C4)C3)nn12 . Value?
≥ 1000 nM

Endpoint output: IC50 of N#Cc1ccc2c(c1)CC(Nc1ncc(C(=O)N3CCC34COC4)cn1)C2 (stereo not drawn) . Value?
100 to 1000 nM

Endpoint output: IC50 of CCCCCC1CN(Cc2cccc(NC(C)=O)c2)C(=O)c2cc(-c3ccc(Cl)cc3)nn21 (stereo not drawn) . Value?
100 to 1000 nM

Endpoint output: IC50 of O=C(O)C1CC2CN(Cc3ccc4c(C(F)(F)F)c(OC5CCC(C(F)(F)F)CC5)ccc4c3)CC2C1 (stereo not drawn) . Value?
≤ 250 nM

Endpoint output: IC50 of COC1CN(C(=O)c2cnc(NCc3cc(OC(F)(F)F)cc(C4CC4)c3)nc2)C1 . Value?
< 100 nM

Endpoint output: IC50 of Cc1cccc(C(=O)N[C@@H](C(=O)N2CCC3(CC2)C(=O)N(C)CN3c2ccc(B(O)O)cc2)C(C)C)c1F . Value?
< 500 nM

Endpoint output: IC50 of CCc1nc2sc(N3CC[C@@H](N(CC(=O)N4CC(O)C4)CC4CC4)C3)nn2c1N(C)c1nc(-c2ccc(F)cc2)c(C#N)s1 . Value?
≥ 1000 nM
